Assayed target: human P2X3 receptor (Homo sapiens (Human))
Sequence (P56373 whole entry): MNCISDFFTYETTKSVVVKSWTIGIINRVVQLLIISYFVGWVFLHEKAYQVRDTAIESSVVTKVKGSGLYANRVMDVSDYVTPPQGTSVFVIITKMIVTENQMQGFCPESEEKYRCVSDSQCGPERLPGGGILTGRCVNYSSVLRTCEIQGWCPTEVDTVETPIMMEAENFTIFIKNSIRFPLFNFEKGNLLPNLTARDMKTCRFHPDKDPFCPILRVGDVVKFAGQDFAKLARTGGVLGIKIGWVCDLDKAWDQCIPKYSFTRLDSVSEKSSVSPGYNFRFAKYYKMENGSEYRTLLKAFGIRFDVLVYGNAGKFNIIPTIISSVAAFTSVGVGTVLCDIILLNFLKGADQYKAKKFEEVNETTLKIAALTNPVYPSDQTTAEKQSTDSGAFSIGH
Assay name: Evaluation of human P2X3 receptor inhibitory activity (Fluo-3 calcium fluorescence, FDSS 3000, ATP stimulation);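 further: stimulus was 50 nM ATP with fluorescence followed for 3 min, and the response per well was peak post-ATP fluorescence divided by the reading at measurement start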
Format: cell-based
Measurement setup: C6BU-1 cells stably expressing human P2X3 receptor, Fluo-3 fluorescence, FDSS 3000
The threshold is 6 nM. Values of IC50 beneath it are tagged Condition met; values meeting or exceeding it are tagged Condition not met.

CCn1c(=O)[nH]/c(=N\c2ccc3nc(C)sc3c2)n(Cc2ccc(Cl)cc2)c1=O
Condition met
CCn1c(=O)[nH]/c(=N\c2ccc(Oc3ccnc(O)c3)cc2)n(Cc2ccc(Cl)cc2)c1=O
Condition met

Input line: Given the entry COC(=O)[C@@H](C)Cn1c(=O)[nH]/c(=N\c2ccc(C#CC3CC3)c(C)c2)n(Cc2ccc(Cl)cc2)c1=O , would its reported IC50 be below 6 nM?
Output line: Condition not met

Input line: Given the entry CC(C)Oc1ccc(/N=c2\[nH]c(=O)n(C[C@H](C)C(=O)O)c(=O)n2Cc2ccc(Cl)cc2)cc1C#N , would its reported IC50 be below 6 nM?
Output line: Condition not met

Input line: Given the entry Cc1ccc(Cn2c(=O)n(C[C@H](C)C(=O)O)c(=O)[nH]/c2=N\c2ccc(OCCC(C)C)cc2)cc1 , would its reported IC50 be below 6 nM?
Output line: Condition not met
